Molecular target: T1, PUF4 RNA-binding domain (Saccharomyces cerevisiae, UniProt P25339 537-888)
T1 sequence: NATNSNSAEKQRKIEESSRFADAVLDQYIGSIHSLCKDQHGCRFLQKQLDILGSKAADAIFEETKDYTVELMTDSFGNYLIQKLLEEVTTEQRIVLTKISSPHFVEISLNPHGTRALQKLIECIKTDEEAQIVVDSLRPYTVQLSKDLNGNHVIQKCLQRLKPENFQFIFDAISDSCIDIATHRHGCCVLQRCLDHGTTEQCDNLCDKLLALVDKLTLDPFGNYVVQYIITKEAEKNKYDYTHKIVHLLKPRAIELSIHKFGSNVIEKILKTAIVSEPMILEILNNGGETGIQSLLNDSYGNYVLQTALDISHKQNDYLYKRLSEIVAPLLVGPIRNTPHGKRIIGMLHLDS
Assay: Mg; RNA-MaP; 20 mM Na-HEPES pH 7.4, 30 mM KOAc, 0.75 mM MgCl2, 0.1% Tween-20, 5% glycerol, 0.1 mg/mL BSA, 2 mM DTT; 25 C; 0.0125-409.6 nM protein
Conditions: tags: N-His6-TEV cleaved; C-SNAP kept, Cy3B-labelled; label: tethered on chip by stalled RNA polymerase
Readout label: pKd
# pKd: negative log10 of molar concentration; output just the value

Look at this binder and give its reported pKd. UCUCUUUGUAAUAAUCUCUU (ssRNA) [Ic_S1_P3E.1_K3.1_C3.1_H3.1_A3.1_[T5A]_[A6T]_F3.1_[T7A]_T3.1]
6.84

Next binder up: UCUCUUUGUAUAUCAUCUCUU (ssRNA) [Ic_S1_P4E.1_K4.1_C4.1_H4.1_A4.1_F4.1_[T8C]_T4.1]
8.07

Same again, this time with UCUCUUACUGUAUUAUUAUUUCUCUU (ssRNA) [Id_ii_S1_P5E.2_K5.1_C5.2_[C-2A]_[T-1C]_H5.1_A5.1_F5.1_T5.2_[A12T]]
8.07

Subsequent entry: Id_ii_S2_P5E.3_K5.2_C5.2_[C-2G]_H5.2_A5.1_F5.1_T5.2_[T11C]_[A12C] (ssRNA) RNA: UUUGAUUAAUAUGAUAUCGUUCUUUCUGUUAUAUUAUUACCUUCUUUCUCGAUAUCAUAUUAAUCUUU
7.83

Entry to check: Ic_S4_P5E.1_K5.1_C5.1_H5.1_A5.1_[T5C]_[T6G]_[A7T]_F5.1_[T8C]_[T9A]_[A10T]_T5.1 (ssRNA) RNA: UUUGACAACUGAUCGUUCUUUCUUGUACGUCAUUUCUUUCUCGAUCAGUUGUCUUU
7.01

Cited source for all entries: paper PMC9352680
